Origin of values: patent US10100366B2

# MEASUREMENT_TARGET: Ba/F3 cells expressing native CD74-ROS1 (Homo sapiens, UniProt P08922)
# Construct: CD74 (fusion partner, N-terminal part of CD74); the other entry of the earlier key: CD74 (P04233, HLA class II histocompatibility antigen gamma chain)
# Sequence (P08922 with tags, fused parts or gaps): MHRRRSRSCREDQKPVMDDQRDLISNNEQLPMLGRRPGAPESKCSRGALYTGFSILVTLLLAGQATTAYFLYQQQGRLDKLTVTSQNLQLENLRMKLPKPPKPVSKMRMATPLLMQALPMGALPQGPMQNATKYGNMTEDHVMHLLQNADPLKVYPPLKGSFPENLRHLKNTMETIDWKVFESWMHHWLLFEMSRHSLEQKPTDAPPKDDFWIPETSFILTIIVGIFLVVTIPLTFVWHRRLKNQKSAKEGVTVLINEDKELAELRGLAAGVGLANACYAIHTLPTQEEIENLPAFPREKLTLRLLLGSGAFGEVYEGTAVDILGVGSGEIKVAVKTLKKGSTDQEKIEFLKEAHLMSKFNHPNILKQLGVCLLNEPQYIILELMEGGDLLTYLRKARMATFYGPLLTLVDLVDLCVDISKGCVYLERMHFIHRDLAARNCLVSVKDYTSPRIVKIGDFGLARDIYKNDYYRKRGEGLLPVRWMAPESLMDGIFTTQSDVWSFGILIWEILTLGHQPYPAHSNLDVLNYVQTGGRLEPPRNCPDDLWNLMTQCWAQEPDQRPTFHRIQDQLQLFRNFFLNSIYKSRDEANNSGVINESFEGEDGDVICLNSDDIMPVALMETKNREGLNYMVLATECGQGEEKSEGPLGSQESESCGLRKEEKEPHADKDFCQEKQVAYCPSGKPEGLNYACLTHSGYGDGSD
# TEST_NAME: Cell growth/viability assay (MTS), Ba/F3 native CD74-ROS1
# CONDITION: 72 h exposure, read-out: IC50, growth inhibition
ASSAY_METRIC: pIC50
pIC50 field: float, defined as -log10 of concentration (mol/L).

The compound listed as COc1cc2nccc(Oc3ccc(NC(=O)C4(C(=O)Nc5ccc(F)cc5)CC4)cc3)c2cc1OC [cabozantinib] shows pIC50 equal to 9.11
